assay method text: yeast display, Sf9 membrane polyspecificity reagent, FACS + sequencing; frameworks hold sequencing errors
measured quantity: polyreactivity (PSR sort gate)

INSERT INTO results (biopolymer_sequence, reading) VALUES
  ('QVQLVESGGGLVQAGGSLRLSCAASGSTFDWYVMGWDRQAPGKERELVADITWSGDSTYYADSVKGRFTISRDNAKNTVYLQMNSLKPEDTAVYYCAADAYTLFYFYVYEYNYWGQGTQVTVSS', 'high polyreactivity'),
  ('QVHLVESVGGLVQAGGILRLSCAASGFTFYSYAMGCYRQAPGNERELVAAITRSGGNTYYADSVKGRFTISRDNAKNTVYLQMNSLKPEDTAVYYCDATGKRISPSHYYCGQGTQVTVSS', 'high polyreactivity'),
  ('QVHLVESGGGLVQARGSLRLSCAAYGRIFGRNAMGWYRQAPGKERELVAVITFSGGDTFYADSVKGRFTISRDNAKNTVYLQMNSLKPEDTAVYYCAKSQGFETYRNVSIFGYWGQGTQVTVSS', 'low polyreactivity'),
  ('QVQLVESGGGLVQAGGSLRLSCAASGFTFVVYAMGWYRQAPGKERELVAAIRRTGGSTYYADSVKGRFTISRDNAKNTVYLQMNSLKPEDTAVYYCAAHAISYQSRYRYRYGSVDYWGQGTQVTVSS', 'high polyreactivity');

Okay, now this sequence:
Can you share its polyreactivity (PSR sort gate)? I mean this sequence: "QVQLVESGGGLVQAGGSLRLSCAASGSTIQQYAMGWYRQAPGKEREFVAAISWRGGRTYYADSVKGRFTISRDKAKNTVYLQMNSLKPEDTAVYYCAVDPSIYRLSAYYYDYWGQGTQVTVSS" low polyreactivity

* * *

assay method text: yeast display, Sf9 membrane polyspecificity reagent, FACS + sequencing; frameworks hold sequencing errors
measured quantity: polyreactivity (PSR sort gate)

INSERT INTO assay_data (biopolymer_sequence, measured_quantity, reading) VALUES
  ('QVQLVESGGGLVQAGGSLRLSCAASGRTFYGYAMAWYRQAPGKERELVAAISVSGGSPYYADSVKGRFTISRDNAKNTVYLQMNSQKPEDTAVYYCIAKYSYRRWYDFDYWGQGTQVTVSS', 'polyreactivity (PSR sort gate)', 'low polyreactivity'),
  ('QVQLVESGGGLVQAGGILRLSCAASGSTFYSYAMGWYRQAPGKERELVAYIDWSGGYTYYADSVKGRFTISRDNAKNTVYLQMNSLKPEDTAVYYCNAERGATGYYVTGDDYWGQGTQVTVSS', 'polyreactivity (PSR sort gate)', 'low polyreactivity');

* * *

assay method text: yeast display, Sf9 membrane polyspecificity reagent, FACS + sequencing; frameworks hold sequencing errors
measured quantity: polyreactivity (PSR sort gate)

INSERT INTO measurements (biopolymer_sequence, measured_quantity, reading) VALUES
  ('QVQLVESGGGLVQAGGSLRISCAASGRIFDYNVMGWYRQAPGKERELVAGISSGGSTYYADSVKGRFTISRDNAKNTVYLQMNSLKPEDTAVYYCAARGRPYRGYGYWGQGTQVTVSS', 'polyreactivity (PSR sort gate)', 'high polyreactivity'),
  ('QVQLVESGGGLVQAGGSLRLSCAASGFTFLVYAMGWYRQAPGKERELVAAISRRGGSTYYADSVKGRFTISRDNAKNTVYLQINSLKPEDTAVYYCNVDRYYRIGYYRLTMGYWGQGTQVTVSS', 'polyreactivity (PSR sort gate)', 'high polyreactivity');

Values were extracted from the nanobody polyreactivity screen of Harvey et al. (2022).
